B1: library; a variant is named by its letters at N, in order (parent)
chain: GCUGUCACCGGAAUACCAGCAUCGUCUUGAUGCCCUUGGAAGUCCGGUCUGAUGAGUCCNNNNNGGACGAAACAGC

Variants of: B1
Assay: FACS-Seq fitted mean relative fluorescence mCherry/BFP without ligand (log10 relative fluorescence); higher = higher reporter protein expression
Conditions: HEK293T, ligand present: no
Recorded FACS-Seq fitted mean (log10) values for a group of variants are listed next.

>  <mutation-id>
GAAUC

>  <FACS-Seq fitted mean (log10)>
0.717

$$$$
>  <mutation-id>
AUACA

>  <FACS-Seq fitted mean (log10)>
0.687

$$$$
>  <mutation-id>
AUUCC

>  <FACS-Seq fitted mean (log10)>
0.959

$$$$
>  <mutation-id>
UCCUC

>  <FACS-Seq fitted mean (log10)>
0.414

$$$$
>  <mutation-id>
AACAG

>  <FACS-Seq fitted mean (log10)>
0.587

$$$$
>  <mutation-id>
UGGUA

>  <FACS-Seq fitted mean (log10)>
0.0996

$$$$
>  <mutation-id>
CCACU

>  <FACS-Seq fitted mean (log10)>
0.682

$$$$
>  <mutation-id>
AUGUA

>  <FACS-Seq fitted mean (log10)>
0.696

$$$$
>  <mutation-id>
GAUUG

>  <FACS-Seq fitted mean (log10)>
0.498

$$$$
>  <mutation-id>
AGAAG

>  <FACS-Seq fitted mean (log10)>
0.448

$$$$
>  <mutation-id>
AGUGA

>  <FACS-Seq fitted mean (log10)>
0.239

$$$$
>  <mutation-id>
UGCAC

>  <FACS-Seq fitted mean (log10)>
0.938

$$$$
>  <mutation-id>
CGCUA

>  <FACS-Seq fitted mean (log10)>
0.353

$$$$
>  <mutation-id>
AUAGC

>  <FACS-Seq fitted mean (log10)>
0.922

$$$$
>  <mutation-id>
AUAAA

>  <FACS-Seq fitted mean (log10)>
0.196

$$$$
>  <mutation-id>
CUAUU

>  <FACS-Seq fitted mean (log10)>
0.965

$$$$
>  <mutation-id>
GCCAU

>  <FACS-Seq fitted mean (log10)>
0.669

$$$$
>  <mutation-id>
UGUGU

>  <FACS-Seq fitted mean (log10)>
0.525

$$$$
>  <mutation-id>
AACAC

>  <FACS-Seq fitted mean (log10)>
0.834

$$$$
>  <mutation-id>
UUCUC

>  <FACS-Seq fitted mean (log10)>
1.19

$$$$
>  <mutation-id>
AAGAG

>  <FACS-Seq fitted mean (log10)>
0.563

$$$$
>  <mutation-id>
CGAGC

>  <FACS-Seq fitted mean (log10)>
0.548

$$$$
>  <mutation-id>
UACCG

>  <FACS-Seq fitted mean (log10)>
1.2

$$$$
>  <mutation-id>
UGCCU

>  <FACS-Seq fitted mean (log10)>
0.875

$$$$
>  <mutation-id>
UAAGC

>  <FACS-Seq fitted mean (log10)>
1.08

$$$$
>  <mutation-id>
GAUGC

>  <FACS-Seq fitted mean (log10)>
0.964

$$$$
>  <mutation-id>
AUUGU

>  <FACS-Seq fitted mean (log10)>
1.06

$$$$
>  <mutation-id>
UUGUA

>  <FACS-Seq fitted mean (log10)>
0.431

$$$$
>  <mutation-id>
GAAAG

>  <FACS-Seq fitted mean (log10)>
1.05

$$$$
>  <mutation-id>
CCACC

>  <FACS-Seq fitted mean (log10)>
0.788

$$$$
>  <mutation-id>
ACAGU

>  <FACS-Seq fitted mean (log10)>
0.512

$$$$
>  <mutation-id>
UCUAU

>  <FACS-Seq fitted mean (log10)>
0.822

$$$$
>  <mutation-id>
GAAAA

>  <FACS-Seq fitted mean (log10)>
0.381

$$$$
>  <mutation-id>
ACUUA

>  <FACS-Seq fitted mean (log10)>
0.6

$$$$
>  <mutation-id>
UUGUC

>  <FACS-Seq fitted mean (log10)>
0.132

$$$$
>  <mutation-id>
GAAUU

>  <FACS-Seq fitted mean (log10)>
0.234

$$$$
>  <mutation-id>
CGUUC

>  <FACS-Seq fitted mean (log10)>
0.959

$$$$
>  <mutation-id>
UGCAU

>  <FACS-Seq fitted mean (log10)>
1.25

$$$$
>  <mutation-id>
CCCCC

>  <FACS-Seq fitted mean (log10)>
0.942

$$$$
>  <mutation-id>
UCCAG

>  <FACS-Seq fitted mean (log10)>
0.956

$$$$
>  <mutation-id>
GUAGA

>  <FACS-Seq fitted mean (log10)>
0.949

$$$$
>  <mutation-id>
CCCGC

>  <FACS-Seq fitted mean (log10)>
1.3

$$$$
>  <mutation-id>
AGGUA

>  <FACS-Seq fitted mean (log10)>
0.987

$$$$
>  <mutation-id>
ACGGC

>  <FACS-Seq fitted mean (log10)>
1.25

$$$$
>  <mutation-id>
UCAUU

>  <FACS-Seq fitted mean (log10)>
0.822

$$$$
>  <mutation-id>
CGUAU

>  <FACS-Seq fitted mean (log10)>
0.177

$$$$
>  <mutation-id>
CGAAC

>  <FACS-Seq fitted mean (log10)>
0.992

$$$$
>  <mutation-id>
UAUGA

>  <FACS-Seq fitted mean (log10)>
0.56

$$$$
>  <mutation-id>
ACGUA

>  <FACS-Seq fitted mean (log10)>
0.721

$$$$
>  <mutation-id>
AAUGU

>  <FACS-Seq fitted mean (log10)>
0.708

$$$$
>  <mutation-id>
AAUUC

>  <FACS-Seq fitted mean (log10)>
0.308

$$$$
>  <mutation-id>
UCCUU

>  <FACS-Seq fitted mean (log10)>
0.983

$$$$
>  <mutation-id>
AUAGU

>  <FACS-Seq fitted mean (log10)>
0.0428

$$$$
>  <mutation-id>
CAAAA

>  <FACS-Seq fitted mean (log10)>
0.173

$$$$
>  <mutation-id>
GUCCU

>  <FACS-Seq fitted mean (log10)>
1.16

$$$$
>  <mutation-id>
GAGGG

>  <FACS-Seq fitted mean (log10)>
0.948

$$$$
>  <mutation-id>
AUUUU

>  <FACS-Seq fitted mean (log10)>
0.213

$$$$
>  <mutation-id>
AGAAC

>  <FACS-Seq fitted mean (log10)>
0.387

$$$$
>  <mutation-id>
AAUGA

>  <FACS-Seq fitted mean (log10)>
0.467

$$$$
>  <mutation-id>
CAGGU

>  <FACS-Seq fitted mean (log10)>
0.996

$$$$
>  <mutation-id>
CGUAA

>  <FACS-Seq fitted mean (log10)>
0.083

$$$$
>  <mutation-id>
UCCCC

>  <FACS-Seq fitted mean (log10)>
1.11

$$$$
>  <mutation-id>
CAGAA

>  <FACS-Seq fitted mean (log10)>
0.0186

$$$$
>  <mutation-id>
UUAAA

>  <FACS-Seq fitted mean (log10)>
0.111

$$$$
>  <mutation-id>
ACUGG

>  <FACS-Seq fitted mean (log10)>
1

$$$$
>  <mutation-id>
UCUUU

>  <FACS-Seq fitted mean (log10)>
0.989

$$$$
>  <mutation-id>
ACACC

>  <FACS-Seq fitted mean (log10)>
0.952

$$$$
>  <mutation-id>
AAUAC

>  <FACS-Seq fitted mean (log10)>
0.997

$$$$
>  <mutation-id>
GCAAG

>  <FACS-Seq fitted mean (log10)>
0.716

$$$$
>  <mutation-id>
AAUCC

>  <FACS-Seq fitted mean (log10)>
0.844

$$$$
>  <mutation-id>
UAUUC

>  <FACS-Seq fitted mean (log10)>
0.679

$$$$
>  <mutation-id>
CCCGU

>  <FACS-Seq fitted mean (log10)>
0.812

$$$$
>  <mutation-id>
UGAUG

>  <FACS-Seq fitted mean (log10)>
0.912

$$$$
>  <mutation-id>
CCAAA

>  <FACS-Seq fitted mean (log10)>
0.24

$$$$
>  <mutation-id>
AGAAA

>  <FACS-Seq fitted mean (log10)>
-0.278

$$$$
>  <mutation-id>
CUUUU

>  <FACS-Seq fitted mean (log10)>
1.04

$$$$
>  <mutation-id>
GACGG

>  <FACS-Seq fitted mean (log10)>
0.642

$$$$
>  <mutation-id>
UUUCC

>  <FACS-Seq fitted mean (log10)>
1.01

$$$$
>  <mutation-id>
UGAAC

>  <FACS-Seq fitted mean (log10)>
1.07

$$$$
